# assayTarget: Monoamine oxidase B (MAO-B) (Homo sapiens)
# Sequence (P27338 whole entry, species assumed): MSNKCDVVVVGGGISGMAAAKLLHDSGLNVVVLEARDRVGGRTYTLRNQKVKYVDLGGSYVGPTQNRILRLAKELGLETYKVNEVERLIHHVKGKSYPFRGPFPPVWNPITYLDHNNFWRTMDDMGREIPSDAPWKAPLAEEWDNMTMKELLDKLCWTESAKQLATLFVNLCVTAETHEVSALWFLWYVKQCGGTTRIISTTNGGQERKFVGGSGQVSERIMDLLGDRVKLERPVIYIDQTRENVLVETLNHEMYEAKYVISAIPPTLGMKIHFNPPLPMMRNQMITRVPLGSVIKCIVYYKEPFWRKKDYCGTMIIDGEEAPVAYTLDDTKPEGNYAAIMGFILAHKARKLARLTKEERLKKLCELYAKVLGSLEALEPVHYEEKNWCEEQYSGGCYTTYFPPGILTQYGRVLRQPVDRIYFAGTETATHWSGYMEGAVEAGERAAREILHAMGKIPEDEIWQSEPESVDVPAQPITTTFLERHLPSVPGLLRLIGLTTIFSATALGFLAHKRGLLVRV
pIC50: −log10 of the molar value.
Label criterion met when pIC50 is at or above 4; anything below gets criterion not met.

molecule | class
CCCCCc1cc2c(c(O)c1C(=O)N1CCS(=O)(=O)CC1)C=CC(C)(CCC=C(C)C)O2 (stereo not drawn) | criterion not met
CCCCCc1cc2c(c(O)c1C(=O)N[C@H]1CCCN(C(=O)OC(C)(C)C)C1)C=CC(C)(CCC=C(C)C)O2 (stereo partly drawn) | criterion met
CCCCCc1cc2c(c(O)c1C(=O)NCC(CC)CCCC)C=CC(C)(CCC=C(C)C)O2 (stereo not drawn) | criterion met
CCCCCc1cc2c(c(O)c1C(=O)NCCCc1ccccc1)C=CC(C)(CCC=C(C)C)O2 (stereo not drawn) | criterion met
